Experiment: collision cross section of modified peptide (TIMS, N2, iRT-aligned); higher = larger / more extended gas-phase ion
Conditions: charge state: 3; modification: Citrullination (R)
± gives the standard deviation.
Quick list: collision cross section per entry.
Reply with a number, then the unit it belongs to.

Example entries begin here.
| sequence-text | measurement-label | readout-value |
| --- | --- | --- |
| YSSNLGNFNYEQRGAFR [_YSSNLGNFNYEQR(Citrullination (R))GAFR_] | collision cross section | 530.01 Å² |
| GGGGGRGGLHDFR [_GGGGGR(Citrullination (R))GGLHDFR_] | collision cross section | 438.48 ± 1.8 Å² |

Value of measured collision cross section for the entry GPPRGGPGGELPR [_GPPR(Citrullination (R))GGPGGELPR_] : 454.52 ± 3.7 Å²

Value of measured collision cross section for the entry GARLPGPVSSAR [_GAR(Citrullination (R))LPGPVSSAR_] : 446.63 Å²

Value of measured collision cross section for the entry PRTPTAPAVNLAGAR [_PR(Citrullination (R))TPTAPAVNLAGAR_] : 471.47 ± 0.76 Å²
